Tested on: ENR+CD organoids (ISC to Paneth cell differentiation)
Assay: Primary screen: basal (non-stimulated) lysozyme secretion LYZ.NS, 2.5-D 384-well ENR+CD organoid differentiation
Assay type: cell-based, mouse
Conditions: primary screen, dose 10.00 uM, FC relative to plate median
Measurement Type: Dose.FC.LYZ.NS (log2 fold change)
Number only, in log2 fold change; omit the unit.

Exercise: Form field: reported Dose.FC.LYZ.NS of Cc1cc(Nc2ccc(NC(=O)c3ccc(Nc4ccnc5ccccc45)cc3)cc2)nc(N)n1 [SGI-1027]
Key: −0.005

Exercise: Proceed to CNC(=C[N+](=O)[O-])NCCSCc1ccc(CN(C)C)o1 [Ranitidine]
Key: −0.046

Exercise: Proceed to O=C(Nc1cc(C(F)(F)F)ccc1N1CCCCC1)c1ccncc1 [SRPIN340]
Key: 0.022

Exercise: Proceed to Cc1cn([C@H]2C=C[C@@H](CO)O2)c(=O)[nH]c1=O [Stavudine (d4T)]
Key: −0.095

Exercise: Proceed to CC(C)(C)c1cc(NC(=O)Nc2ccc(-c3cn4c(n3)sc3cc(OCCN5CCOCC5)ccc34)cc2)no1 [Quizartinib (AC220)]
Key: −0.173

* * *

Tested on: ENR+CD organoids (ISC to Paneth cell differentiation)
Test: Primary screen: CCh-stimulated lysozyme secretion LYZ.S, 2.5-D 384-well ENR+CD organoid differentiation
Assay type: cell-based, mouse
Details: primary screen, dose 2.00 uM, FC relative to plate median
Structures can show the parent of a compound that is named as a salt.
Measurement Type: Dose.FC.LYZ.S (log2 fold change)
Number only, in log2 fold change; omit the unit.

Compound	Target Or Test System	Dose.FC.LYZ.S / log2 fold change
CC(C)(C)c1cnc(CSc2cnc(NC(=O)C3CCNCC3)s2)o1	ENR+CD organoids (ISC to Paneth cell differentiation)	−0.301
Cc1c(C(=O)NN2CCCCC2)nn(-c2ccc(Cl)cc2Cl)c1-c1ccc(Cl)cc1	ENR+CD organoids (ISC to Paneth cell differentiation)	−0.053
COc1c(C)c(C(=O)c2ccc(N)c(C(=O)[O-])c2)n2ccccc12.[Na+] [SSR128129E]	ENR+CD organoids (ISC to Paneth cell differentiation)	0.023

Exercise: Hello, I am looking for reported Dose.FC.LYZ.S with ENR+CD organoids (ISC to Paneth cell differentiation) for Cc1[nH]c(/C=C2\C(=O)Nc3ccc(S(=O)(=O)N(C)c4cccc(Cl)c4)cc32)c(C)c1C(=O)N1CCN(C)CC1 . Could you help?
Key: 0.008

Exercise: Proceed to CC(=O)OCC(=O)NCCCOc1cccc(CN2CCCCC2)c1 [Roxatidine Acetate HCl]
Key: −0.053

Exercise: Proceed to Cc1cc(NC(=O)Nc2ccc(N(C)C)cc2)c2cc(F)cc(F)c2n1
Key: 0.082

Exercise: Proceed to Cc1cc(OCCCS(C)(=O)=O)cc(C)c1-c1cccc(COc2ccc3c(c2)OC[C@H]3CC(=O)O)c1
Key: −0.031

Exercise: Proceed to O=S(=O)(c1ccccc1)c1cnc2c(N3CCNCC3)cccc2c1
Key: −0.003

Exercise: Proceed to O=C1CC(=O)c2c(Cl)c(Cl)c(Cl)c(Cl)c21
Key: −0.066

* * *

Item-by-item account of Dose.FC.LYZ.S (log2 fold change)
System: ENR+CD organoids (ISC to Paneth cell differentiation)
Test: Primary screen: CCh-stimulated lysozyme secretion LYZ.S, 2.5-D 384-well ENR+CD organoid differentiation
Format: cell-based, mouse
Details: primary screen, dose 0.40 uM
I only need the number, thanks.

Would you please look over these solved cases?
Compound	Dose.FC.LYZ.S (log2 fold change)
Cl.O=C(O)Cc1cccc(OCCCN(Cc2cccc(C(F)(F)F)c2Cl)CC(c2ccccc2)c2ccccc2)c1 [GW3965 HCl]	0.074
O=C(/C=C\n1cnc(-c2cc(C(F)(F)F)cc(C(F)(F)F)c2)n1)N1CC(F)(F)C1 [KPT-276]	0.148
Cc1cc(Nc2ncc(Cl)c(Nc3ccccc3S(=O)(=O)C(C)C)n2)c(OC(C)C)cc1C1CCNCC1 [LDK378]	−0.047
COc1ccc(COc2ccc(Cc3cnc(N)nc3N)cc2OC)cc1 [GW2580]	0.020
CC[C@H](C)C(=O)O[C@H]1C[C@@H](C)C=C2C=C[C@H](C)[C@H](CC[C@@H]3C[C@@H](O)CC(=O)O3)[C@H]21 [Lovastatin]	−0.049

Exercise: Hello, I am looking for reported Dose.FC.LYZ.S (log2 fold change) with ENR+CD organoids (ISC to Paneth cell differentiation) for O=C(c1ccc(Nc2nccc(-c3cc4ccccc4s3)n2)cc1)N1CCC(N2CCCC2)CC1 [IKK-16 (IKK Inhibitor VII)] . Could you help?
Key: 0.028

Exercise: Proceed to CC(C)c1onc(-c2c(Cl)cccc2Cl)c1COc1ccc(/C=C/c2cccc(C(=O)O)c2)c(Cl)c1 [GW4064]
Key: 0.097

* * *

System: ENR+CD organoids
Test: Primary screen: ATP (CellTiter-Glo 3D, CTG) cell number/viability, 2.5-D 384-well ENR+CD organoids;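 note: compounds given at plating and again on day 3 over a 6-day differentiation from ENR+CV stem-cell-enriched precursors, ATP measured on day 6, plate median as control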
Settings: primary screen, dose 10.00 uM, FC relative to plate median
Structures can show the parent of a compound that is named as a salt.
Tick y if Dose.FC.CTG is -0.2 log2 fold change or greater. Tick n if Dose.FC.CTG is less than -0.2 log2 fold change.

Record excerpt, results attached:
Molecule	Class Assignment
CC(C)(C)n1nc(-c2ccc(Cl)cc2)c2c(N)ncnc21 [PP2]	n
N#CSc1cc(SC#N)c(N)nc1N [PR-619]	n
C#CCC(Cc1cnc2nc(N)nc(N)c2n1)c1ccc(C(=O)N[C@@H](CCC(=O)O)C(=O)O)cc1 (stereo partly drawn) [Pralatrexate]	n
CCCc1nc2c(C)cc(-c3nc4ccccc4n3C)cc2n1Cc1ccc(-c2ccccc2C(=O)O)cc1 [Telmisartan]	y

Exercise: Reported Dose.FC.CTG at or above -0.2 log2 fold change? CC(=O)OCC(=O)NCCCOc1cccc(CN2CCCCC2)c1 [Roxatidine Acetate HCl]
Key: n

Exercise: Proceed to O=C(Nc1cc(C(F)(F)F)ccc1N1CCCCC1)c1ccncc1 [SRPIN340]
Key: y

Exercise: Proceed to O=C(Nc1ccccc1Br)N[C@@H]1CCN(c2ccc(C(F)(F)F)cn2)C1 [SB705498]
Key: y

Exercise: Proceed to O=C(Nc1ccncc1)c1cc([N+](=O)[O-])ccc1Cl [T0070907]
Key: n

Exercise: Proceed to Cc1c(C(=O)NN2CCCCC2)nn(-c2ccc(Cl)cc2Cl)c1-c1ccc(Cl)cc1 [Rimonabant]
Key: y

* * *

Tested on: ENR+CD organoids (ISC to Paneth cell differentiation)
Assay: Primary screen: basal (non-stimulated) lysozyme secretion LYZ.NS, 2.5-D 384-well ENR+CD organoid differentiation
Assay type: cell-based, mouse
Conditions: primary screen, standard z score, dose 10.00 uM
Source text: High-throughput screening.
Measurement Type: Z.LYZ.NS

Would you please look over these solved cases?
Compound	Z.LYZ.NS
O=C(O)c1cc2cccc([N+](=O)[O-])c2[nH]1 [CRT0044876]	0.278
CC(C)NC[C@@H](C(=O)N1CCN(c2ncnc3c2[C@H](C)C[C@H]3O)CC1)c1ccc(Cl)cc1 [GDC-0068]	−1.613
CC1=C(C(=O)OC2CCCCC2)C(c2ccc([N+](=O)[O-])cc2)C2=C(CC(C)(C)CC2=O)N1 (stereo not shown) [FLI-06]	−1.216
CCOc1ccccc1-n1c(C(C)N2CCN(C(=O)COc3ccc(Cl)cc3)CC2)nc2ccccc2c1=O (stereo not shown) [Erastin]	−0.133
COc1ccc2nc([S@@+]([O-])Cc3ncc(C)c(OC)c3C)[nH]c2c1 [Esomeprazole Sodium]	−0.139
CC(=O)O[C@]1(C(C)=O)CC[C@H]2[C@@H]3C=C(Cl)C4=CC(=O)[C@@H]5C[C@@H]5[C@]4(C)[C@H]3CC[C@@]21C [Cyproterone Acetate]	−0.702

Please look at the following compound next.
Exercise: Form field: reported Z.LYZ.NS of COc1cc(Nc2ncc(F)c(Nc3ccc4c(n3)N(COP(=O)(O)O)C(=O)C(C)(C)O4)n2)cc(OC)c1OC [Fostamatinib (R788)]
Key: −2.036

* * *

Test system: ENR+CD organoids (ISC to Paneth cell differentiation)
Experiment: Primary screen: CCh-stimulated lysozyme secretion LYZ.S, 2.5-D 384-well ENR+CD organoid differentiation
Type: cell-based, mouse
Conditions: primary screen, dose 0.40 uM
Tick 1.0 if Dose.FC.LYZ.S is 0.03 log2 fold change or greater. Tick 0.0 if Dose.FC.LYZ.S is less than 0.03 log2 fold change.

Record excerpt, results attached:
Compound	Class Assignment
COc1ccc(-n2nc(C(N)=O)c3c2C(=O)N(c2ccc(N4CCCCC4=O)cc2)CC3)cc1	0.0
CN(C)Cc1ccc(-c2nc3cccc4c3n2CCNC4=O)cc1	0.0
CC(C)Oc1ccc(-c2cnc3c(-c4ccnc5ccccc45)cnn3c2)cc1	1.0

Exercise: Reported Dose.FC.LYZ.S at or above 0.03 log2 fold change? O=C(/C=C/c1ccc(O)c(O)c1)OCCc1ccccc1
Key: 1.0

Exercise: Proceed to CC1(COc2ccc3c(c2)ncn3-c2ccc3cccc(N4CCC(N)CC4)c3n2)COC1
Key: 1.0

Exercise: Proceed to COc1cc(OC2CCN(C)CC2)ccc1Nc1ncc2c(n1)n(C1CCCC1)c(=O)n2C
Key: 0.0

Reference source for all entries: patent US20220323406A1
